Values were extracted from ChEMBL document CHEMBL2321856.

Parameter t1/2: see the listing below.
Test system: Liver microsomes
assay details: Half life in rat liver microsomes by LC-MS analysis
Assay type: ADME, Microsome
// note: answer is a bare numeric in min

CC(C)n1nc(C(F)c2cccc(Cl)c2Cl)c2c(N)ncnc21 (stereo not drawn) : 12.9
CC(C)n1nc(Cc2cccc(Cl)c2Cl)c2c(N)ncnc21 : 7
CC(C)(C)n1nc(Cc2ccc(F)c(Cl)c2)c2c(N)ncnc21 : 4
CC(C)(C)n1nc(Cc2cc(Cl)ccc2F)c2c(N)ncnc21 : 5.5
CC(C)(C)n1nc(Cc2cccc(Br)c2)c2c(N)ncnc21 : 3
CC(C)n1nc(Cc2cc(F)cc(Cl)c2)c2c(N)ncnc21 : 2.4

Please give measured t1/2 of the following entry: `CC(C)(C)n1nc(Cc2cccc(Cl)c2F)c2c(N)ncnc21`
2.5

Please give measured t1/2 of the following entry: CC(C)n1nc(C(O)c2cccc(Cl)c2Cl)c2c(N)ncnc21 (stereo not drawn)
20.2

---

Test system: Toxoplasma gondii
assay details: Antiparasitic activity against wild type tachyzoites of Toxoplasma gondii RH type 1 infected in HFF cells incubated for 20 mins prior to inoculation followed by compound washout at 4 hrs measured after 72 hrs by beta-galactoside reporter assay
Format: functional, organism-based
details: RH type 1, HFF
Parameter pEC50: see the listing below.
Just so you know, pEC50 here is -log10 of the concentration in molar units; reply with that number alone.

Sample records with pEC50:
CC(C)n1nc(Cc2cccc(Cl)c2Cl)c2c(N)ncnc21 : 6.60
CC(C)n1nc(Cc2cccc(Cl)c2F)c2c(N)ncnc21 : 5.85

We now examine a further molecule.
Please give measured pEC50 of the following entry: `CC(C)(C)n1nc(-c2cccc(OCc3c(Cl)cccc3Cl)c2)c2c(N)ncnc21`
5.34

---

Tested on: Toxoplasma gondii
assay details: Antiparasitic activity against wild type tachyzoites of Toxoplasma gondii RH type 1 infected in HFF cells incubated for 20 mins prior to inoculation followed by compound washout at 4 hrs measured after 72 hrs by beta-galactoside reporter assay
Assay type: functional, organism-based
details: RH type 1, HFF
Parameter pEC50: see the listing below.
Just so you know, pEC50 here is -log10 of the concentration in molar units; reply with that number alone.

Sample records with pEC50:
CC(C)(C)n1nc(Cc2cccc(Cl)c2)c2c(N)ncnc21 : 7.52
CC(C)n1nc(C(F)c2cccc(Cl)c2Cl)c2c(N)ncnc21 (stereo not drawn) : 5.58
CC(C)(C)n1nc(Cc2cc(F)cc(Cl)c2)c2c(N)ncnc21 : 6.37
CC(C)(C)n1nc(Cc2ccc(F)c(Cl)c2)c2c(N)ncnc21 : 6.39
CC(C)(C)n1nc(Cc2cccc(Cl)c2Cl)c2c(N)ncnc21 : 6.42
CC(C)(C)n1nc(-c2cccc3ccccc23)c2c(N)ncnc21 : 6.15
CC(C)n1nc(C(O)c2cccc(Cl)c2Cl)c2c(N)ncnc21 (stereo not drawn) : 5.02
CC(C)(C)n1nc(Cc2cc(F)cc(F)c2)c2c(N)ncnc21 : 6.21
CC(C)n1nc(Cc2cc(Cl)ccc2F)c2c(N)ncnc21 : 5.17
CC(C)(C)n1nc(Cc2cccc(I)c2)c2c(N)ncnc21 : 5.95

Provide pEC50, system Toxoplasma gondii, entry `CC(C)(C)n1nc(Cc2cc(Cl)ccc2F)c2c(N)ncnc21`
6.04

Provide pEC50, system Toxoplasma gondii, entry `CC(C)(C)n1nc(-c2cccc(OCc3ccccc3)c2)c2c(N)ncnc21`
4.94

Provide pEC50, system Toxoplasma gondii, entry `CC(C)(C)n1nc(-c2cccc(Oc3ccccc3)c2)c2c(N)ncnc21`
5.88

Provide pEC50, system Toxoplasma gondii, entry `CC(C)(C)n1nc(Cc2cccc3ccccc23)c2c(N)ncnc21`
5.88

Provide pEC50, system Toxoplasma gondii, entry `CC(C)(C)c1ccc(-c2nn(C(C)(C)C)c3ncnc(N)c23)cc1`
5.42

Provide pEC50, system Toxoplasma gondii, entry `CC(C)(C)n1nc(Cc2ccc3ccccc3c2)c2c(N)ncnc21`
5.71

Provide pEC50, system Toxoplasma gondii, entry `CC(C)(C)n1nc(-c2ccc3c(c2)OCO3)c2c(N)ncnc21`
6.21

Provide pEC50, system Toxoplasma gondii, entry `CC(C)n1nc(Cc2cc(F)cc(Cl)c2)c2c(N)ncnc21`
6.74

Provide pEC50, system Toxoplasma gondii, entry `CC(C)(C)n1nc(Cc2cccc(Cl)c2F)c2c(N)ncnc21`
6.44
